# STUDY_TARGET: T. brucei GlcNAc-PI de-N-acetylase (Trypanosoma brucei brucei, UniProt Q8I8A5)
# Sequence (Q8I8A5 entry or part of it): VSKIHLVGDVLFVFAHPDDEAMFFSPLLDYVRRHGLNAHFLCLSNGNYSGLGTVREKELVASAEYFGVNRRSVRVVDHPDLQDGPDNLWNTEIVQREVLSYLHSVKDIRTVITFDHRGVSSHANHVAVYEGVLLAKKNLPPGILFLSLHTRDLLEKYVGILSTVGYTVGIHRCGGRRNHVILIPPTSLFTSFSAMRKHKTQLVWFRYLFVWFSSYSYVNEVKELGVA
# ASSAY_SUMMARY: Substrate recognition (de-N-acetylation turnover) in T. brucei cell-free system, LC-MS/MS assay
# Format: biochemical
# CONDITION_NOTES: N-acetylated analogue as substrate of the de-N-acetylase
EXPERIMENTAL_ENDPOINT: Substrate activity: recognised and processed (in words)

IN: Item CCCCCCCCCCCCCCCCCCS(=O)(=O)N[C@@H]1CCCC[C@H]1O[C@@H]1O[C@H](CO)[C@@H](O)[C@H](O)[C@H]1NC(C)=O [Compound 51] with T. brucei GlcNAc-PI de-N-acetylase (Trypanosoma brucei brucei, UniProt Q8I8A5) - Substrate activity: recognised and processed (in words)?
OUT: inability

IN: Item CCCCCCCCCCCCCCCCCCS(=O)(=O)N[C@@H]1CCCC[C@H]1O[C@H]1O[C@H](CO)[C@@H](O)[C@H](O)[C@H]1NC(C)=O [Compound 52] with T. brucei GlcNAc-PI de-N-acetylase (Trypanosoma brucei brucei, UniProt Q8I8A5) - Substrate activity: recognised and processed (in words)?
OUT: inability
